# Measurement target: Ae. aegypti NPYLR7 (Aedes aegypti)
# Assay summary: In vitro calcium (GCaMP6s) FLIPR assay in HEK293T cells transfected with NPYLR7
# Type: cell-based
# Stated conditions: summary EC50 per compound (mean over assay dates); the unit is taken from the neighbouring EC50 (uM) column; read-out: Reported Metric
# Description: The in vitro screening assay was adapted from, and carried out at HD Biosciences (HDB, Shanghai) as follows: HEK293T (Thermo Fisher Scientific) cells were grown in Dulbecco’s modified Eagle medium (DMEM) (high glucose, with glutamine), 10% fetal bovine serum, 1% penicillin–streptomycin (Pen/Strep), seeded in a 75 cm^2 flask, and incubated at 37 °C and 5% CO2. […] Data were collected in raw fluorescence units (RFU). […]
Each record is given Condition met if its reported EC50 is strictly below 2 µM. Records at or above 2 µM are given Condition not met.

Worked examples, 3 molecules total:
>  <Molecule>
CCCOc1ccc2c(C)nc(NC(=N)N)nc2c1 [TDI-014178]

>  <Label class>
Condition not met

$$$$
>  <Molecule>
Cc1nc(NC(=N)N)nc2cc(OCC3CCCCO3)ccc12 (centres unmarked) [TDI-014192]

>  <Label class>
Condition not met

$$$$
>  <Molecule>
Cc1nc(NC(=N)N)nc2cc(OCc3ccc(S(C)(=O)=O)cc3)ccc12 [TDI-014182]

>  <Label class>
Condition met

$$$$

query: Check if EC50 falls below 2 µM for Cc1nc(NC(=N)N)nc2cc(OCC3CCCCC3)ccc12 [TDI-014169] .
result: Condition not met

query: Check if EC50 falls below 2 µM for CNc1nc(NC(=N)N)nc2cc(OCc3ccc(OC)cc3)ccc12 [TDI-014190] .
result: Condition met

====

# Measurement target: Ae. aegypti NPYLR7 (Aedes aegypti)
# Assay summary: In vitro calcium (GCaMP6s) FLIPR assay in HEK293T cells transfected with NPYLR7
# Type: cell-based
# Stated conditions: sheet Figure 3C; unit inferred; read-out: EC50
Experimental readout: EC50 (µM)
Numeric answer only, unit µM assumed.

Reference set (3 entries):
>  <Compound>
Cc1nc(NC(=N)N)nc2cc(OCc3cnccn3)ccc12

>  <Measured value>
6.21

$$$$
>  <Compound>
Cc1nc(NC(=N)N)nc2cc(OCC3CCCOC3)ccc12 (centres unmarked)

>  <Measured value>
7.37

$$$$
>  <Compound>
Cc1nc(NC(=N)N)nc2cc(OCc3cccnn3)ccc12

>  <Measured value>
39.3

$$$$

The reported EC50 of the compound COc1ccc(OCc2ccc3c(C)nc(NC(=N)N)nc3c2)cc1 was 0.547

The reported EC50 of the compound Cc1nc(NC(=N)N)nc2cc(OCC3CCOC3)ccc12 (centres unmarked) was 5.31

The reported EC50 of the compound CNc1nc(NC(=N)N)nc2cc(OCc3ccc(OC)cc3)ccc12 was 0.0181

The reported EC50 of the compound Cc1nc(NC(=N)N)nc2cc(OC3CCCc4ccccc43)ccc12 (centres unmarked) was 13.7

The reported EC50 of the compound Cc1nc(NC(=N)N)nc2cc(OCC3CCCCO3)ccc12 (centres unmarked) was 5.76

The reported EC50 of the compound CCCOc1ccc2c(C)nc(NC(=N)N)nc2c1 was 2.25

The reported EC50 of the compound COc1ccc2c(C)nc(NC(=N)N)nc2c1 [TDI-012631, reference compound] was 4.11

The reported EC50 of the compound COc1ccc(COc2ccc3c(C)nc(NC(=N)N)nc3c2)cc1OC was 0.00192

====

# Measurement target: Ae. aegypti NPYLR7 (Aedes aegypti, UniProt U5N1H5)
# Sequence (U5N1H5 entry or part of it): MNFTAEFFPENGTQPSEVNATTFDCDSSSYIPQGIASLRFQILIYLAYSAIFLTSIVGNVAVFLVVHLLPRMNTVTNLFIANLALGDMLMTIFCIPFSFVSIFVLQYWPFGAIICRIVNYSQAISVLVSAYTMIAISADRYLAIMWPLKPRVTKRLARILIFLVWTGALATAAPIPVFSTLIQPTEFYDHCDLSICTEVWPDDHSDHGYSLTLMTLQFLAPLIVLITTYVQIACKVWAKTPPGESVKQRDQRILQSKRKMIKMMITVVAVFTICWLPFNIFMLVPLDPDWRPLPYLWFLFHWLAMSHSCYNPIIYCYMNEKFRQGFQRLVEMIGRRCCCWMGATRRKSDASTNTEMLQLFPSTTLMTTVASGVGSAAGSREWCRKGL
# Assay summary: In vitro calcium (GCaMP6s) FLIPR assay in HEK293T cells transfected with NPYLR7
# Assay type: cell-based
# Stated conditions: relative EC50, percent effect relative to 10 μM FMRFa3; read-out: EC50
# Experimental: The in vitro screening assay was adapted from, and carried out at HD Biosciences (HDB, Shanghai) as follows: HEK293T (Thermo Fisher Scientific) cells were grown in Dulbecco’s modified Eagle medium (DMEM) (high glucose, with glutamine), 10% fetal bovine serum, 1% penicillin–streptomycin (Pen/Strep), seeded in a 75 cm^2 flask, and incubated at 37 °C and 5% CO2. […] Data were collected in raw fluorescence units (RFU). […]
pEC50 values, listed per item
Please note pEC50 is a logarithmic value: minus log10 of concentration in mol/L. Answer with that number alone.

Reference set (2 entries):
>  <Compound>
COc1ccc(OCc2ccc3c(C)nc(NC(=N)N)nc3c2)cc1

>  <Measured value>
6.26

$$$$
>  <Compound>
COc1ccc(COc2ccc3c(C)nc(NC(=N)N)nc3c2)cc1OC

>  <Measured value>
8.72

$$$$

The reported pEC50 of the compound Cc1nc(NC(=N)N)nc2cc(OCC3CCCOC3)ccc12 (stereo not shown) was 5.13

The reported pEC50 of the compound CNc1nc(NC(=N)N)nc2cc(OCc3ccc(OC)cc3)ccc12 was 7.74

The reported pEC50 of the compound Cc1nc(NC(=N)N)nc2cc(OCc3ccc(OC(F)F)cc3)ccc12 was 5.79

====

# Measurement target: Ae. aegypti NPYLR7 (Aedes aegypti, UniProt U5N1H5)
# Assay summary: In vitro calcium (GCaMP6s) FLIPR assay in HEK293T cells transfected with NPYLR7
# Type: cell-based
# Stated conditions: HEK-293T, 0.4115 uM; single replicate, normalised response
Experimental readout: activation at 0.4115 µM
The answer should read as a number with its unit following.

Reference set (3 entries):
>  <Compound smiles>
COc1ccc(COc2ccc3c(C)nc(NC(=N)N)nc3c2)cc1OC

>  <Experimental readout>
activation at 0.4115 µM

>  <Measured value>
85.1%

$$$$
>  <Compound smiles>
COc1ccc(COc2ccc3c(C)nc(NC(=N)N)nc3c2)cn1

>  <Experimental readout>
activation at 0.4115 µM

>  <Measured value>
47.7%

$$$$
>  <Compound smiles>
COc1ccc(OCc2ccc3c(C)nc(NC(=N)N)nc3c2)cc1

>  <Experimental readout>
activation at 0.4115 µM

>  <Measured value>
35.1%

$$$$

Now for the compound whose activation at 0.4115 µM we want.
The reported activation at 0.4115 µM of the compound Cc1nc(NC(=N)N)nc2cc(OCc3ccc(S(C)(=O)=O)cc3)ccc12 was 32%

====

# Test system: Aedes aegypti (Orlando strain) females
# Assay summary: Biting assay (mouse-in-cage)
# Format: in vivo
# Parameters: key: Actual (vs. saline) / Difference between medians: Hodges-Lehmann (vs. saline): differences in percent biting (blood-fed/total females, %)
# Stated conditions: fed 1 μM
Difference between medians: Hodges-Lehmann (vs. saline) values, listed per item
Form rule: numeric answer, no unit written next to it.

>  <Compound smiles>
Cc1nc(NC(=N)N)nc2cc(N3CCc4ccccc4C3)ccc12

>  <Measurement target>
Aedes aegypti (Orlando strain) females

>  <Measured value>
-17

$$$$

The reported Difference between medians: Hodges-Lehmann (vs. saline) of the compound CNc1nc(NC(=N)N)nc2cc(OCC3CCOCC3)ccc12 was -21

The reported Difference between medians: Hodges-Lehmann (vs. saline) of the compound CNc1nc(NC(=N)N)nc2cc(OCc3ccccc3)c(OC)cc12 was -24

The reported Difference between medians: Hodges-Lehmann (vs. saline) of the compound Cc1nc(NC(=N)N)nc2cc(OCc3ccc(OC(F)F)cc3)ccc12 was -11

====

EC50 values, listed per item
# Measurement target: Ae. aegypti NPYLR7 (Aedes aegypti, UniProt U5N1H5)
# Assay summary: In vitro calcium (GCaMP6s) FLIPR assay in HEK293T cells transfected with NPYLR7
# Type: cell-based
# Stated conditions: Figure 1E summary value per compound; repeated on each replicate line; read-out: Reported Metric (EC50 summarised over assay dates)

>  <Compound smiles>
COc1ccc(COc2ccc3c(C)nc(NC(=N)N)nc3c2)cc1

>  <EC50>
27.7 nM

$$$$

Now for the compound whose EC50 we want.
The reported EC50 of the compound COc1cc2c(C)nc(NC(=N)N)nc2cc1OCc1ccccc1 was 54.5 nM

====

# Measurement target: Ae. aegypti NPYLR7 (Aedes aegypti, UniProt U5N1H5)
# Assay summary: In vitro calcium (GCaMP6s) FLIPR assay in HEK293T cells transfected with NPYLR7
# Format: cell-based
# Stated conditions: Figure 1E, metric reported per compound, repeated on every replicate line; read-out: Reported Metric (EC50)
EC50 values, listed per item
The answer should read as a number with its unit following.

Reference set (2 entries):
>  <Compound>
Cc1nc(NC(=N)N)nc2cc(OC(F)(F)F)ccc12 [TDI-012613]

>  <EC50>
3.38 µM

$$$$
>  <Compound>
COc1ccc2c(C)nc(NC(=N)N)nc2c1 [TDI-012631, reference compound]

>  <EC50>
4.11 µM

$$$$

The reported EC50 of the compound Cc1nc(NC(=N)N)nc2cc(OC(F)F)ccc12 [TDI-012615] was 1.62 µM
